Molecular target: D(1A) dopamine receptor (Homo sapiens) (UniProt P21728)
Sequence (P21728 whole entry, looked up): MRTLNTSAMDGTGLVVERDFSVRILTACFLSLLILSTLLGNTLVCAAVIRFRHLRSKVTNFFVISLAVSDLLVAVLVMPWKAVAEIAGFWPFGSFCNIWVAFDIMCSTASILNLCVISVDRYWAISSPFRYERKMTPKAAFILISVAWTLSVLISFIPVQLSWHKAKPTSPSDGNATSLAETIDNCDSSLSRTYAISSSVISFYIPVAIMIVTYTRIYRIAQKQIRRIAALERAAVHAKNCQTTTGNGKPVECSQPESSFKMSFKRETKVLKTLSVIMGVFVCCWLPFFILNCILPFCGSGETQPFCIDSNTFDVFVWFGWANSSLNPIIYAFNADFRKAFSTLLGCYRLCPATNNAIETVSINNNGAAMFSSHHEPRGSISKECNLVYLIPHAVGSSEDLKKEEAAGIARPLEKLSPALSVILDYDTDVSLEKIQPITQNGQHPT
Assay: Allosteric Agonists of the Human D1 Dopamine Receptor: qHTS
Conditions: HEK293 T-REx D1 cells, calcium flux, agonist mode; at 2 µM
In all, about 360,000 compounds went through this assay and about 3,700 (1%) were called active. Cut-off read from the data, not from the text of the source: active = activation above about 30%; inactive = the rest. The sample as a whole holds a higher share of actives than the screen did.
Outcomes: YES (active), NO (inactive)

{"columns": ["item.smiles", "category.label"],
 "data": [
  ["COc1cccc(C(=O)NC(=O)Nc2nc(C)cc(C(F)(F)F)n2)c1", "NO"],
  ["Cc1ccc(NC(=O)Cc2ccc(NC(=O)N3CCCCc4ccccc43)cc2)cc1", "NO"],
  ["COc1cccc(C(=O)c2sc3nc(-c4ccccc4)cc(C(F)(F)F)c3c2N)c1", "YES"],
  ["CC1CCN(S(=O)(=O)c2ccc3c(c2)N(CC(=O)NCc2ccccc2Cl)C(=O)CO3)CC1", "NO"],
  ["COc1cccc(C(=O)Nc2ccc(-c3cc(C(F)(F)F)nn3-c3ccccc3)cc2)c1", "NO"]
]}
